System: DMS 273 small cell lung
Assay: NCI tumour cell line growth inhibition, 48 h
observation_type: TGI (µM)
Value expressed in µM; do not type the unit.

Check out these entries, answers already filled in.
* CCN1c2ccccc2-c2c3c1cc(C)cc3c1ccccc1[n+]2CC | 1.58
* Cc1cccc(C2=C/C(=C(\SS/C(C(=O)c3ccc(OCC(=O)O)c(Cl)c3Cl)=C3\C=C(c4cccc(C)c4)SS3)C(=O)c3ccc(OCC(=O)O)c(Cl)c3Cl)SS2)c1 | 83.6

Shifting focus to the compound that follows.
So what TGI did "ClC(Cl)=C1C(=C(Cl)Cl)C(Cl)(Cl)C1(Cl)Cl" get with DMS 273 small cell lung?
9.87

* * *

Test system: KM20L2 colon
Experiment: NCI tumour cell line growth inhibition, 48 h
Overview of reported TGI across a group of compounds:
Kindly answer with a numeric value in µM, unit omitted.

Example entries begin here.
- COc1cc(/C=C2\[C@H]3c4c(c(OC)c(C)c(OC)c4OC)CC(C(=O)N2Cc2ccccc2)N3C)c(OC)c(C)c1OC: 37.2
- CO[C@H]1Nc2c(ccc(C)c2O)C(=O)N2C=C(/C=C/C(N)=O)C[C@@H]12: 0.891
- N#CC1=C(c2ccccc2)NNC(c2ccc(Cl)cc2)CC1=O (centres undefined): 61.2

Consider the compound CC(C)=C1CCC(CN(C)C)C1=O (centres undefined) and give its measured TGI.
27.7

Dear colleague, I am looking for the recorded TGI of the following compound: "CSC(=Nc1ccccc1)N(c1ccccc1)c1nc(=[N+](C)C)ss1"
13.7

* * *

Reported TGI values are given for each entry in this list.
System: UO-31 renal
Experiment: NCI tumour cell line growth inhibition, 48 h

- CN(C)CCNCCN: > 100 µM
- COc1cc2c(/C=N\N=C(N)N)c[nH]c2cc1C: > 100 µM
- CCc1c[n+]([O-])c(C)cc1[N+](=O)[O-]: > 100 µM
- CC(C)(C)c1ccc2c(c1)S(=O)(=O)Nc1ccc(Cl)cc1NS(=O)(=O)c1cc(C(C)(C)C)ccc1OCCOCCOCCO2: > 100 µM
- Cc1ccc(OCCOCCOCCOCCOc2ccc(C)n(O)c2=S)c(=S)n1O: 4.14 µM

Consider the molecule CC(O)CCCOC(c1ccccc1)(c1ccccc1)c1ccccc1 (configuration not stated) and give its measured TGI.
26.7 µM

I have this molecule here, O=C(CC(=O)C1CCOC1=O)C(=O)Nc1cccc(Cl)c1 (configuration not stated) , and I need its recorded TGI.
> 100 µM

Look at this molecule and give its reported TGI. "COc1c(C)n(CCO)ccc1=O"
> 100 µM

Would you mind telling me what TGI value was observed for "N#CCCN1C/C(=C/c2ccc(Br)cc2)C(=O)/C(=C/c2ccc(Br)cc2)C1" ?
2.92 µM

Could you share which TGI value was measured for CC(=O)OCC1OC(n2cc(I)c(=O)[nH]c2=O)C(OC(C)=O)C(OC(C)=O)C1OC(C)=O (configuration not stated) ?
> 100 µM

Look at this molecule and give its reported TGI. COc1ccc(S(=O)(=O)N2C(=O)CCC2C(=O)NN)cc1 (configuration not stated)
> 100 µM

// TGI lookup, key: "S=c1[nH]c2ccc(Br)cc2c(=S)s1"
53.5 µM

* * *

Tested on: HS 578T breast
Assay: NCI tumour cell line growth inhibition, 48 h
Where a SMILES comes first, the peptide text is derived from it. Bridges are numbered along the chain shown (N, C = ends). [ ]: non-standard residue; d: D form. The star is where a group is joined. ξ: configuration not given here. X26 = O=C(/C=C/C=C/C=C/C=C/C=C/C(=O)*)NC1=C(O)CCC1=O; NMeA = CN[C@@H](C)C(=O)O; ξF = NC(Cc1ccccc1)C(=O)O; ξA = CC(N)C(=O)O
observation_type: TGI

Examples from the recorded data:
* CCNC(=O)/C(=C/c1ccc(OC)cc1)c1cc(OC)c(OC)c(OC)c1 | > 42.2 µM
* COC(=O)CCc1cc(OC)c2c(c1)[C@H](C(=O)OC)[C@@H](c1ccc(O)c(OC)c1)O2 | > 100 µM

Which TGI value belongs to "Oc1[nH]c2ccc(Br)cc2c1N=NC(=S)Nc1ccc(F)cc1" ?
63.6 µM

So what's the measured TGI for this one? "COc1ccc(-c2c3c([nH]c(=S)c2C#N)CC(C)(C)CC3=O)cc1"
> 100 µM

Suppose we examine the compound "S=C(/N=c1\sc(Nc2ccc(Cl)cc2)nc2sc3c(c12)CCN(N1CCc2c(sc4nc(Nc5ccc(Cl)cc5)s/c(=N\C(=S)Nc5ccc(Cl)cc5)c24)C1)C3)Nc1ccc(Cl)cc1" ; what TGI value has been reported?
> 100 µM

Need TGI, item CC1NC(=O)[C@H](C)N(C)C(=O)[C@@H]2CCCN2C(=O)[C@@H](NC(=O)C(Cc2ccccc2)NC(=O)/C=C/C=C/C=C/C=C/C=C/C(=O)NC2=C(O)CCC2=O)COC(=O)[C@@H]2CCCN2C1=O (some centres not stated) (X26-[ξF]SP[NMeA][ξA]P; ester 2-C)
> 100 µM

Looking for the measured TGI of "COc1cc2c(cc1OC)[C@H]1CN3CCC[C@H]3C=C1c1ccc(OC)c(O)c1-2" , can you help?
0.00677 µM
